Assay: NCI Yeast Anticancer Drug Screen. Data for the cln2 rad14 strain (AID 165)
Settings: S. cerevisiae cln2 rad14 strain, at 50.0 µM
Compounds without any hit were thinned out: in the full panel of roughly 79,000, 15% have a hit. Active and inactive are the calls of the source. Cut-off read from the data, not from the text of the source: active = growth inhibition above about 70%; inactive = the rest.
Possible outcomes: T for active, F for inactive

>  <Compound>
NC(=O)C1CCCN1C(=O)C1CCCN(Cc2cc(CN3CCCC(C(=O)N4CCCC4C(N)=O)C3)cc(CN3CCCC(C(=O)N4CCCC4C(N)=O)C3)c2)C1 (configuration not stated)

>  <Group Label>
F

$$$$
>  <Compound>
CN(C)c1nc(=NCc2ccco2)ss1

>  <Group Label>
F

$$$$
>  <Compound>
O=C1OC(c2ccccc2)N/C1=C\c1ccc2c(c1)OCO2 (configuration not stated)

>  <Group Label>
F

$$$$
>  <Compound>
O=C(Cl)c1ccc(N=Nc2ccccc2)cc1

>  <Group Label>
F

$$$$
>  <Compound>
COc1cc(CNc2nc3ccccc3nc2-c2cccs2)cc(OC)c1OC

>  <Group Label>
F

$$$$
>  <Compound>
C(=C\c1cnnc2ccccc12)/c1cccnc1

>  <Group Label>
F

$$$$
>  <Compound>
O=C(OCc1ccc2c(c1)OCO2)c1ccc(Cl)cc1

>  <Group Label>
F

$$$$
>  <Compound>
CCOc1ccc2nc(C)cc(C)c2c1

>  <Group Label>
F

$$$$
>  <Compound>
COc1cc(-c2ccc(-[n+]3nc(Cc4ccc5c(c4)OCO5)nn3-c3ccccc3)c(OC)c2)ccc1-[n+]1nc(Cc2ccc3c(c2)OCO3)nn1-c1ccccc1

>  <Group Label>
F

$$$$
>  <Compound>
COc1cc(/C=C\C(=O)c2cccc(O)c(=O)c2)cc(OC)c1OC

>  <Group Label>
F

$$$$
>  <Compound>
COc1cc2c(c(OC)c1OC)-c1ccc(SC)c(=O)cc1[C@@H](NC(=O)Oc1ccccc1)CC2

>  <Group Label>
F

$$$$
>  <Compound>
CCCCCCCCCCCC(=O)NCCc1ccc(O)c(O)c1

>  <Group Label>
T

$$$$
>  <Compound>
O=C1/C(=C\c2ccc(Cl)cc2)SC2SC=C(c3ccc([N+](=O)[O-])cc3)N12 (configuration not stated)

>  <Group Label>
T

$$$$
>  <Compound>
CC1=NOC(=O)/C1=C/c1ccc(Cl)c(Cl)c1

>  <Group Label>
F

$$$$
>  <Compound>
Cc1ccc(SCC#CC#CCS(=O)c2ccc(C)cc2)cc1 (configuration not stated)

>  <Group Label>
T

$$$$
>  <Compound>
FC(F)(F)c1ccccc1NC(=S)SCc1ccc(Cl)cc1

>  <Group Label>
T

$$$$
>  <Compound>
CC(=O)NC(CCC(=O)O)C(=O)O.[NH-]C1CCCCC1[NH-].[Pt+2] (configuration not stated)

>  <Group Label>
T

$$$$
>  <Compound>
O=[N+]([O-])C(=C(Nc1ccccc1)Nc1ccccc1)/C(Cl)=C(\Cl)Br

>  <Group Label>
T

$$$$
>  <Compound>
CC1=C[P+](c2ccccc2)(c2ccccc2)C=C(c2ccccc2)O1

>  <Group Label>
T

$$$$
>  <Compound>
Cc1ccc(NC(=S)SCc2ccc3c(c2)OCO3)cc1Cl

>  <Group Label>
T

$$$$
>  <Compound>
Cc1nn(CCO)c(=O)c(C#N)c1C

>  <Group Label>
F

$$$$
>  <Compound>
N/C(=N\N=C/c1ccc(O)c(O)c1O)NO

>  <Group Label>
F

$$$$
